Molecular target: Paired box protein Pax-6 (Homo sapiens) (UniProt P26367)
Sequence (P26367 whole entry, looked up): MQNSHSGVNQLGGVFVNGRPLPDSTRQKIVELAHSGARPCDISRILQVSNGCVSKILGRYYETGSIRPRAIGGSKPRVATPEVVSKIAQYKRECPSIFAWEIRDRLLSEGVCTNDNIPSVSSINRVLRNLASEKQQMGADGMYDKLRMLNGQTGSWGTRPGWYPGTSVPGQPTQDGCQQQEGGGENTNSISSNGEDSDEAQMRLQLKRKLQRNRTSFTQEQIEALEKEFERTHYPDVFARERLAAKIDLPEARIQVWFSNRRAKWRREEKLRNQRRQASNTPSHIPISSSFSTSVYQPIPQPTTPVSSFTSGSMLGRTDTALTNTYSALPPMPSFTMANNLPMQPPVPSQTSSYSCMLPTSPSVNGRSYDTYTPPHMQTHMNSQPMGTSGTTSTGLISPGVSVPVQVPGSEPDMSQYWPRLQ
Test: ATG_Pax6_CIS: Attagene CIS-FACTORIAL HepG2 Assay for human Paired Box 6 (PAX6) (AID 2282956)
Settings: HepG2 CIS-FACTORIAL PAX6 reporter transcription, RNA readout; actives raise or lower the signal
Active and inactive are the calls of the source. How the source made its calls: active means hit-call score of the fitted dose curve at least 0.9, where 1 is the maximum; inactive means score below 0.9.
Please state which outcome applies, choosing from true (1) = active, false (0) = inactive

These recorded examples may help you get a feel for the data.
Q. Each compound tested received a call. Report the one for Clc1sc(Cl)c(Cl)c1Cl .
A. false (0)

Q. Each compound tested received a call. Report the one for Cc1cccc(C)c1C .
A. false (0)

Q. Each compound tested received a call. Report the one for Nc1ccc(F)c([N+](=O)[O-])c1 .
A. false (0)

Q. Each compound tested received a call. Report the one for CCCCCCCCCCCCOCCO .
A. false (0)

Q. Each compound tested received a call. Report the one for CC(=O)OCCC(C)CC(C)(C)C (stereo not given) .
A. false (0)

Q. Each compound tested received a call. Report the one for C=C(C)C(=O)OCCOC(=O)CC(C)=O .
A. false (0)

Q. Each compound tested received a call. Report the one for Nc1cc([N+](=O)[O-])ccc1Cl .
A. false (0)

Q. Each compound tested received a call. Report the one for CC(C)(C#N)c1cc(Cn2cncn2)cc(C(C)(C)C#N)c1 .
A. false (0)

Q. Each compound tested received a call. Report the one for CC(=O)c1c(C)cc(C(C)(C)C)cc1C .
A. false (0)

Q. Each compound tested received a call. Report the one for O=C1NC(=O)c2ccccc21 .
A. false (0)

Continue with the next compound.
Q. Each compound tested received a call. Report the one for Nc1cc(Cl)c(O)c(Cl)c1 .
A. true (1)
